Sourced from PubChem BioAssay (NCI)

Collected growth inhibition values appear next to each entry.
Assay: NCI Yeast Anticancer Drug Screen. Data for the mlh1 strain (AID 171);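 also: 0% = growth of vehicle-treated control cultures of the same strain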
Conditions: S. cerevisiae mlh1 strain growth inhibition; at 100.0 µM; active compounds read high
The panel holds about 79,000 compounds, 15% with a hit somewhere; the sample as a whole holds those more often.
Response body: numeric value in %, unit text excluded.

Compound: CCCCCCCCCCCCCCCCOP(=O)(O)OCC(N)C(=O)O (stereo not given)
Endpoint value: 97

Compound: NC(=O)c1c([N+](=O)[O-])cc(C(F)(F)F)cc1[N+](=O)[O-]
Endpoint value: 8

Compound: Cn1c(=O)c2c(nc(N)n2C2OC(CO)C(O)C2O)n(C)c1=O (stereo not given)
Endpoint value: -1

Compound: Cc1c(-c2ccccn2)ccc2ccccc12
Endpoint value: 39

Compound: CNC(=O)OCc1c(COC(=O)NC)c(-c2ccc(Cl)c(Cl)c2)n2c1SCC2
Endpoint value: 44

Ask: Need growth inhibition, item O=[N+]([O-])c1cccc2nc3ccccc3c(NCCCn3ccnc3[N+](=O)[O-])c12
Result: 92

Ask: Consider next the compound N#CC(C#N)=NNc1ccc(S(=O)(=O)O)cc1 in the same way.
Result: 41

Ask: Request: COc1ccc(C(NCCNC(c2ccc(OC)c(OC)c2)c2cc3c(cc2O)OCO3)c2cc3c(cc2O)OCO3)cc1OC (stereo not given)
Result: 99

Ask: What do we get for Cc1c2cc[n+](Cc3ccc(I)cc3)cc2c(C)c2c1[nH]c1ccccc12 ?
Result: 96

Ask: Another: COC(=O)C1(C)CCc2c(ccc3ccccc23)C1=O (stereo not given)
Result: 32

----------
Assay: NCI Yeast Anticancer Drug Screen. Data for the rad50 strain (AID 155);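 also: 0% = growth of vehicle-only cultures of the same strain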
Settings: S. cerevisiae rad50 strain growth inhibition; at 33.0 µM; active compounds read high
The panel holds about 79,000 compounds, 15% with a hit somewhere; the sample as a whole holds those more often.
Reported endpoint: growth inhibition (%)
Kindly answer with a numeric value in %, unit omitted.

Reference set (3 entries):
Compound: CC(=O)OCC(C)Cc1cc2c(cc1Br)OCO2 (stereo not drawn)
Reported endpoint: growth inhibition
Display unit: %
Endpoint value: -13
--
Compound: Cc1ccc2c3ccc4c(c3n(C)c2c1)C(=O)C=CC4=O
Reported endpoint: growth inhibition
Display unit: %
Endpoint value: 10
--
Compound: CS(=O)(=O)SCc1ccc([N+](=O)[O-])cc1
Reported endpoint: growth inhibition
Display unit: %
Endpoint value: 99

Ask: Requested read-out: growth inhibition. Entry: COC1=C(OC)C(=O)C(Sc2ccc3ccccc3c2)=CC1=O
Result: 92

Ask: Would you kindly repeat that for O=C1Nc2ccccc2/C1=C/c1ccccc1 ?
Result: 39

Ask: Entry to check: C[C@]12CC[C@H](O)CC1=CC[C@@H]1C2CC[C@]2(C)C(=O)NC(=O)CC12 (stereo partly drawn)
Result: 53

Ask: Please answer likewise for CCCC(O)C1CC(C(C)C)CCC1C (stereo not drawn)
Result: 6

Ask: # iterate: Cc1csc(=S)n1OC(=O)NC1CCCCC1
Result: 98

Ask: Same lookup for CCOC1=C/C(=N\Nc2ccc([N+](=O)[O-])cc2)CCC1 , please.
Result: 30

Ask: Same thing, different compound: CCCCC/C(=C(\C#N)C(=O)OCC)c1ccccc1
Result: 7

Ask: Please give the result for C/C(=N\Nc1ccc([N+](=O)[O-])cc1[N+](=O)[O-])c1sc(-n2nc(-c3ccccc3)cc2-c2ccccc2)nc1C too.
Result: 4

Ask: Note, next up: Nc1ncnc2c1ncn2C1OC(CO)CC1O (stereo not drawn)
Result: 76

Ask: Then what about the compound COc1ccc(/C=C/c2sc3ccccc3[n+]2CCCCI)cc1OC ?
Result: 48

Ask: Now consider C[C](C)(C)[Ge]([O][Ge]([c]1ccccc1)[c]1ccccc1)([O][Ge]([c]1ccccc1)[c]1ccccc1)[C](C)(C)C .
Result: 63

Ask: // same read-out, input: COc1ccc(N=CN(C)C)c(C)c1
Result: 86

Ask: One more compound: COc1c(O)c(C=O)c(Br)c(C=O)c1O
Result: 47

Ask: Same for O=[N+]([O-])c1cc(S(=O)(=O)Nc2ccccc2)ccc1Nc1ccccc1
Result: 89

Ask: Could you do the same for O=C(CC(=O)n1nc(-c2ccccc2)c(N=Nc2ccc(Cl)cc2)c1-c1ccccc1)Nc1cccc(Cl)c1 , please?
Result: 2

Ask: Now this one: CC1=C(C(=O)NCc2ccccc2)C(c2ccccc2)C(C(=O)NCc2ccccc2)=C(C)N1
Result: 36

Ask: Follow-up entry: CCN(CC)CCN(C)CCc1ccc(Br)cc1
Result: 50

Ask: Same lookup for CCCCCCOC(=O)NCCOC(=O)Nc1ccccc1 , please.
Result: 8

Ask: Next compound up: Cn1c(=O)c2c(nc(N)n2C2OC(CO)C(O)C2O)n(C)c1=O (stereo not drawn)
Result: -1

Ask: // same read-out, input: CCOC(=O)c1[nH]cc(C)c1-c1cccn1-c1ccc(Cl)cc1[N+](=O)[O-]
Result: 19
